TEST_DESCRIPTION: Aqueous solubility of the compound
Type: physicochemical
QUANTITY_NAME: solubility (µg/mL)
All answers are understood in µg/mL, so give the number only.

Q: What value of measured solubility is listed for CC(C)(C)CCc1cc(C(F)(F)F)ccc1CNC(=O)Nc1cccc2[nH]ncc12 ?
Result: 0.42

----------
ASSAY_SYSTEM: Transient receptor potential cation channel subfamily V member 1 (Homo sapiens)
Sequence (Q8NER1 whole entry): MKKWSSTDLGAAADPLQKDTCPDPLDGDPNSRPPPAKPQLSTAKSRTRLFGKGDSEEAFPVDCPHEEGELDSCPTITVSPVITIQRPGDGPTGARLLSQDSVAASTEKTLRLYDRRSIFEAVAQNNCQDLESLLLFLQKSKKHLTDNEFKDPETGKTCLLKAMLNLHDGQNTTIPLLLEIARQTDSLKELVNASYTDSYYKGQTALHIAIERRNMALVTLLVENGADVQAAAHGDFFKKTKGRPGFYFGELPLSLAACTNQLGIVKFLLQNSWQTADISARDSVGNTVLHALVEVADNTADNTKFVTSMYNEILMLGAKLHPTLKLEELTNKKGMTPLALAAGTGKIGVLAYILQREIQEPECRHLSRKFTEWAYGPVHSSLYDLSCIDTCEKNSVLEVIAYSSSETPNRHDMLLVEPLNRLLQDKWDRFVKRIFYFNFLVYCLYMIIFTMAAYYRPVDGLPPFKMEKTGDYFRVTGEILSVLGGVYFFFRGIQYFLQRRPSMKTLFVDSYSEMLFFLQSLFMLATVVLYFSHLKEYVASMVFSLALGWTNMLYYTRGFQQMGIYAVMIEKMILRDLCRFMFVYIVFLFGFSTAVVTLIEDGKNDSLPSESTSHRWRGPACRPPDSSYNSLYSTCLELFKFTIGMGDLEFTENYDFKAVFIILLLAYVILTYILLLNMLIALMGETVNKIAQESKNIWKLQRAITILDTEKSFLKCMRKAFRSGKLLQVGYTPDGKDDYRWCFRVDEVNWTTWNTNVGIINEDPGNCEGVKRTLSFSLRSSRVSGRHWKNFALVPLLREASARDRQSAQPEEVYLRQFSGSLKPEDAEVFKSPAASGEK
TEST_DESCRIPTION: Antagonist activity at human TRPV1
Assay type: functional
pIC50: −log10 of the molar value.
Label criterion met for high-side pIC50 (at or above 8) and criterion not met for low-side pIC50 (below it).

Recorded results for 2 compounds are shown here.
>>> assigned_label("O=C(NCc1ccc(C(F)(F)F)nc1)Nc1cccc2[nH]ncc12")
"criterion not met"
>>> assigned_label("CC(C)(C)CCc1nc(C(F)(F)F)ccc1CNC(=O)Nc1cccc2[nH]ncc12")
"criterion met"

Shift focus to the following entry.
Q: Does the reported pIC50 for CC(C)(C)CCc1cc(C(F)(F)F)ccc1CNC(=O)Nc1cccc2[nH]ncc12 fall at or above the 8 mark?
Result: criterion met
